Target: T1, human ROR1 (hROR1) on cells (human, UniProt Q01973 30-937)
T1 construct: whole, on cells; the cell line is named under assay; also called HEK293T-hROR1; 293T-hROR1
T1 sequence (Q01973 30-937): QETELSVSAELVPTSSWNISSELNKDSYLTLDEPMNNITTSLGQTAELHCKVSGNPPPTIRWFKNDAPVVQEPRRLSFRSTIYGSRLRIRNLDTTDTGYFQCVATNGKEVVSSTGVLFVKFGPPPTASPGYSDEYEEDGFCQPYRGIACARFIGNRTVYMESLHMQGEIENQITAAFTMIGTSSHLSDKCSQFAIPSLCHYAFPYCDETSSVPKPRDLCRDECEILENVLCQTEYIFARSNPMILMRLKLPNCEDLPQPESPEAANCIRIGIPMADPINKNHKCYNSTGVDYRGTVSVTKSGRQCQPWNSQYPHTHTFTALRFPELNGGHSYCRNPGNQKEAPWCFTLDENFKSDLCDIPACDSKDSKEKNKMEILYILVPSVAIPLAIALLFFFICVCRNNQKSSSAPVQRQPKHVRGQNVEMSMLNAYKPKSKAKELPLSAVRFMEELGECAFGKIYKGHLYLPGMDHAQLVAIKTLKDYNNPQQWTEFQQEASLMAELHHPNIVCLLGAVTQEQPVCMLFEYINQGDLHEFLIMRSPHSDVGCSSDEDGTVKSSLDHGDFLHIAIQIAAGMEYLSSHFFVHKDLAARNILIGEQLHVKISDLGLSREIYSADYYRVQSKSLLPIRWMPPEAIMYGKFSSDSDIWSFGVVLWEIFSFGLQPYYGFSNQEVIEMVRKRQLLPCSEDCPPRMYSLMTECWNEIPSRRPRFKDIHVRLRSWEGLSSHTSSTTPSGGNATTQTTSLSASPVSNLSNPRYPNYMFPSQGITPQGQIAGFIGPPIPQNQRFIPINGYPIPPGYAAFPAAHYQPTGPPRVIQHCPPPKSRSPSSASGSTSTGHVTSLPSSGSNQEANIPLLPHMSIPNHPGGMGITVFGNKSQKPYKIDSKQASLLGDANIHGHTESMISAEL
Experiment: FACS, A549 cells
Collected MAX(MFI) values appear next to each entry.
The reply should be a number in MFI, with the unit left off.

1) PR001359 (antibody, human IgG1, kappa, V domains shown, fully human IgG1, kappa) VH: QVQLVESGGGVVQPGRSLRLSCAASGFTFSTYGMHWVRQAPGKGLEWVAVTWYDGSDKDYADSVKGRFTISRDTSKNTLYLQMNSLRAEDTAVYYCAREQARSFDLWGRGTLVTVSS VL: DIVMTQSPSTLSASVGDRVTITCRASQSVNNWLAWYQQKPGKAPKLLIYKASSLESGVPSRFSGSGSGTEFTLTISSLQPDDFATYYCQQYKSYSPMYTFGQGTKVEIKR :: 3930
2) PR001371 (antibody, human IgG1, kappa, V domains shown, fully human IgG1, kappa) VH: QVQLVESGGGVVQPGRSLRLSCAASGFTFSSYGMLWVRQAPGKGLEWVAVAWYDGVSEDYADSVKGRFTISRDNSMNTLSLQMNSLRAEDTAVYYCAREQARSFDLWGRGTLVTVSS VL: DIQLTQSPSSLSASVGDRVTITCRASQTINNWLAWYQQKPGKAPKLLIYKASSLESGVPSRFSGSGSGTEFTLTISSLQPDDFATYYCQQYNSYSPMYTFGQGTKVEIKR :: 4110
3) PR001365 (antibody, human IgG1, kappa, V domains shown, fully human IgG1, kappa) VH: QVQLVQSGGGVVQPGRSLRLSCAASGFTFSSYGMHWVRQAPGKGLEWVAVIWYDGSDKDYADSVKGRFTISRDTSKNTLYLQMNSLRAEDTAVYYCAREQARSFDLWGRGTLVTVSS VL: DIQMTQSPYSLSASVGDRVTITCRASQTINNWLAWYQQKPGKAPKLLIYKASSLESGVPSRFSGSGSGTEFTLTISSLQPDDFATYYCQQYKLYSPMYTFGQGTKVEIKR :: 4400
4) PR001352 (antibody, human IgG1, kappa, V domains shown, fully human IgG1, kappa) VH: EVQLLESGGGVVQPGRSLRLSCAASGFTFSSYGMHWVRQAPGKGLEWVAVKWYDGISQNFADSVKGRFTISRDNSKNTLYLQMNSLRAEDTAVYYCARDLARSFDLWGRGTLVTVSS VL: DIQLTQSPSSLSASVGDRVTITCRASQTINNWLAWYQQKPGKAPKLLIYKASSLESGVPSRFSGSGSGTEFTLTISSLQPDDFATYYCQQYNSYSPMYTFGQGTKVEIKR :: 4520
5) PR001367 (antibody, human IgG1, kappa, V domains shown, fully human IgG1, kappa) VH: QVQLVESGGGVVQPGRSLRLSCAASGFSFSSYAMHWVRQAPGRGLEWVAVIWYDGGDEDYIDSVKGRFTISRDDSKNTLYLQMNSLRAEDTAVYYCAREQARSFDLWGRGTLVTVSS VL: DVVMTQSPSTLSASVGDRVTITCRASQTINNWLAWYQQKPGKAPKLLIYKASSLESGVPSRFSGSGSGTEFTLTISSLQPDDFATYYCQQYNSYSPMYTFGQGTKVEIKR :: 3450

Input line: I have this binder here, PR001354 (antibody, human IgG1, kappa, V domains shown, fully human IgG1, kappa; also called anti-ROR1 1015M2-C9 hIgG1; PR001354(WT)) VH: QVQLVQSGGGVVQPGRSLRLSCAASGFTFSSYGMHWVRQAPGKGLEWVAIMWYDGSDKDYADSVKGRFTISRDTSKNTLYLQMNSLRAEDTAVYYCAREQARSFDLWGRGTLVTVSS VL: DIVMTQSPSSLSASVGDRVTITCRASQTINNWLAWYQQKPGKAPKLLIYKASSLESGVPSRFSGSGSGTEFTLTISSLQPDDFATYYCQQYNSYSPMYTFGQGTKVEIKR , and I need its recorded MAX(MFI).
Output line: 4300

Input line: Record: PR001357 (antibody, human IgG1, kappa, V domains shown, fully human IgG1, kappa) VH: QVQLVQSGGGVVQPGRSLRLSCAASGFTFSSYGMHWVRQAPGKGLEWVAVIWYDGSNKDYADSVKGRFTISRDTSKNTLYLQMNSLRAEDTAVYYCAREQARSFDLWGRGTLVTVSS VL: DIQLTQSPYSLSASVGDRVTITCRASQTINNWLAWYQQKPGKAPKLLIYKASSLESGVPSRFSGSGSGTEFTLTISSLQPDDFATYYCQQYKLYSPMYTFGQGTKVEIKR
Output line: 4550

Input line: Consider next the binder PR001364 (antibody, human IgG1, kappa, V domains shown, fully human IgG1, kappa; also called anti-ROR1 1015M3-D8 hIgG1; PR001364(WT)) VH: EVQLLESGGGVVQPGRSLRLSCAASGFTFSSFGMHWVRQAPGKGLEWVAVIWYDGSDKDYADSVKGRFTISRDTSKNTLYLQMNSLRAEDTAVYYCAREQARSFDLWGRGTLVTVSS VL: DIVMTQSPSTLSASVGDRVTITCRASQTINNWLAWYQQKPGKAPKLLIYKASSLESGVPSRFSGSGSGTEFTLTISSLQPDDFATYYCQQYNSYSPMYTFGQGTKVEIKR in the same way.
Output line: 3960

Input line: Now try PR001360 (antibody, human IgG1, kappa, V domains shown, fully human IgG1, kappa) VH: QVQLVESGGGVVQPGRSLRLSCAASGFTFSSYGMHWVRQAPGKGLEWVAVIWYDGSDKDSVDSVKGRFTISRDDSKNTLYLQMNSLRAEDTAVYYCAREQARSFDLWGRGTLVTVSS VL: DIQMTQSPSTLSASVGDRVTITCRASQTINNWLAWYQQKPGKAPKLLIYKASSLESGVPSRFSGSGSGTEFTLTISSLQPDDFATYYCQQYNIYSPMYTFGQGTKVEIKR .
Output line: 4050

Input line: Another binder: PR001362 (antibody, V domains shown, fully human IgG1, kappa) VH: QVQLVESGGGLVQPGGSLRLSCAASGFTFSTYGMHWVRQAPGKGLEWVAVIWYDGSDEDYADSVKGRFTISRDNSKNTLYLQMNSLRAEDTAVYYCARDQARSFDLWGRGTLVTVSS VL: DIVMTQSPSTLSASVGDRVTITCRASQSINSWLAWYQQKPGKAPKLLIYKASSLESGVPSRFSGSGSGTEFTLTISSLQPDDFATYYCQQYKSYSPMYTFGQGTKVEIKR
Output line: 3750
